System: barnyardgrass (Echinochloa crus-galli)
test: Test A postemergence
Format: in vivo
conditionParameters: Echinochloa crus-galli, post-emergence, 240 h, 125 g ai/ha, postemergence; visual injury after approximately 10 d; 0 to 100 scale (0 no effect, 100 complete control); read-out: Plant response rating, Barnyardgrass
Listed molecules paired with reported pest or weed control at 125 g/ha
observationType: pest or weed control at 125 g/ha (%)

molecule: CCc1cc(CC)cc([C@H]2CN(C)C(=O)[C@@H]2C(=O)Nc2ccccc2F)c1 [Compound 735]
observationType: pest or weed control at 125 g/ha
valueReported: 90
--
molecule: O=C1NC[C@H](c2csc3ccccc23)[C@H]1C(=O)Nc1ccccc1F [Compound 750]
observationType: pest or weed control at 125 g/ha
valueReported: 70
--
molecule: Cc1ccc([C@H]2CN(C)C(=O)[C@@H]2C(=O)Nc2cccc(F)c2F)c(F)c1 [Compound 730]
observationType: pest or weed control at 125 g/ha
valueReported: 100
--
molecule: Cc1ccc([C@H]2CN(C)C(=O)[C@@H]2C(=O)Nc2ccccc2S(C)(=O)=O)cc1C [Compound 734]
observationType: pest or weed control at 125 g/ha
valueReported: 90
--
molecule: CN1C[C@H](c2nccs2)[C@@H](C(=O)Nc2cccc(F)c2F)C1=O [Compound 774]
observationType: pest or weed control at 125 g/ha
valueReported: 0
--
molecule: CN1C[C@H](c2ccc(OC(F)F)cc2)[C@@H](C(=O)Nc2ccccc2S(C)(=O)=O)C1=O [Compound 788]
observationType: pest or weed control at 125 g/ha
valueReported: 80
--
molecule: CN1C[C@H](c2ccc(C#N)cc2)[C@@H](C(=O)Nc2cccc(F)c2F)C1=O (racemic) [Compound 775]
observationType: pest or weed control at 125 g/ha
valueReported: 50
--
molecule: Cc1ccc(NC(=O)[C@H]2C(=O)N(C)C[C@@H]2c2cc(F)cc(F)c2)c(F)c1F [Compound 771]
observationType: pest or weed control at 125 g/ha
valueReported: 90
--
molecule: Cc1ccc(NC(=O)[C@H]2C(=O)N(C)C[C@@H]2c2cc(F)cc(F)c2)c(F)c1 [Compound 760]
observationType: pest or weed control at 125 g/ha
valueReported: 80
--
molecule: O=C1NC[C@H](c2csc3ccccc23)[C@H]1C(=O)Nc1cccc(F)c1F [Compound 751]
observationType: pest or weed control at 125 g/ha
valueReported: 60

* * *

System: pigweed (Amaranthus retroflexus)
test: Test A postemergence
Type: in vivo
conditionParameters: Amaranthus retroflexus, post-emergence, 240 h, 125 g ai/ha, Postemergence, visual rating about 10 d after treatment; read-out: Pigweed plant response rating (0 to 100 scale)
Excerpt: […]

compound: CN1CC[C@H](c2cccc(C(F)(F)F)c2)[C@@H](C(=O)Nc2cccc(F)c2F)C1=O [Compound 1330]
system: pigweed (Amaranthus retroflexus)
readoutUnit: %
pest or weed control at 125 g/ha: 0

compound: O=C(Nc1cccc(F)c1F)C1C(=O)N(CC(F)F)CC1c1cccc(C(F)(F)F)c1 (stereo not drawn) [Compound 1294]
system: pigweed (Amaranthus retroflexus)
readoutUnit: %
pest or weed control at 125 g/ha: 0

compound: CN1C[C@H](c2ccc3c(c2)CCO3)[C@@H](C(=O)Nc2cccc(F)c2F)C1=O [Compound 1324]
system: pigweed (Amaranthus retroflexus)
readoutUnit: %
pest or weed control at 125 g/ha: 0

compound: C=CCOc1cccc(C2CN(C)C(=O)C2C(=O)Nc2ccccc2F)c1 (stereo not drawn) [Compound 1329]
system: pigweed (Amaranthus retroflexus)
readoutUnit: %
pest or weed control at 125 g/ha: 0

compound: O=C1NC[C@H](c2ccc(OC(F)F)cc2)[C@H]1C(=O)Nc1ccc(F)cc1F [Compound 1325]
system: pigweed (Amaranthus retroflexus)
readoutUnit: %
pest or weed control at 125 g/ha: 70

compound: CN1C[C@H](c2csc3c2CCCC3)[C@@H](C(=O)Nc2cccc(F)c2F)C1=O [Compound 1276]
system: pigweed (Amaranthus retroflexus)
readoutUnit: %
pest or weed control at 125 g/ha: 0

compound: CC(C)=Cc1cc([C@H]2CN(C)C(=O)[C@@H]2C(=O)Nc2cccc(F)c2F)ccc1C(F)(F)F [Compound 1337]
system: pigweed (Amaranthus retroflexus)
readoutUnit: %
pest or weed control at 125 g/ha: 20

compound: CN1C[C@H](c2ccc(C(F)(F)F)cc2)[C@@H](C(=O)Nc2ccccc2-n2cncn2)C1=O [Compound 1288]
system: pigweed (Amaranthus retroflexus)
readoutUnit: %
pest or weed control at 125 g/ha: 0

compound: N#Cc1ccc(NC(=O)C2C(=O)NCC2c2ccccc2)cc1 (stereo not drawn) [Compound 1355]
system: pigweed (Amaranthus retroflexus)
readoutUnit: %
pest or weed control at 125 g/ha: 0

compound: CN1C[C@H](c2ccc(C(F)(F)F)nc2)[C@@H](C(=O)Nc2cccc(F)c2F)C1=O [Compound 1372]
system: pigweed (Amaranthus retroflexus)
readoutUnit: %
pest or weed control at 125 g/ha: 60

compound: COc1c([C@H]2CN(C)C(=O)[C@@H]2C(=O)Nc2ccccc2F)cccc1C(F)(F)F [Compound 1338]
system: pigweed (Amaranthus retroflexus)
readoutUnit: %
pest or weed control at 125 g/ha: 0

compound: CN1C[C@H](c2cccc(C#N)c2)[C@@H](C(=O)Nc2ccc(F)c(F)c2F)C1=O [Compound 1287]
system: pigweed (Amaranthus retroflexus)
readoutUnit: %
pest or weed control at 125 g/ha: 0

* * *

Listed compounds paired with reported pest or weed control at 125 g/ha
System: ragweed (common ragweed, Ambrosia elatior)
test: Test A postemergence
Assay type: in vivo
conditionParameters: Ambrosia artemisiifolia, post-emergence, 240 h, 125 g ai/ha, Postemergence, visual rating about 10 d after treatment; read-out: Ragweed plant response rating (0 to 100 scale)

compound: Cc1nc([C@H]2CN(C)C(=O)[C@@H]2C(=O)Nc2cccc(F)c2F)cs1
system: ragweed (common ragweed, Ambrosia elatior)
pest or weed control at 125 g/ha [%]: 0
//
compound: CN1C[C@H](c2cccc(C#N)c2)[C@@H](C(=O)Nc2ccc(F)c(F)c2F)C1=O
system: ragweed (common ragweed, Ambrosia elatior)
pest or weed control at 125 g/ha [%]: 0
//
compound: CN1C[C@H](c2ccc(C(F)(F)F)nc2)[C@@H](C(=O)Nc2cccc(F)c2F)C1=O
system: ragweed (common ragweed, Ambrosia elatior)
pest or weed control at 125 g/ha [%]: 60
//
compound: CN1C[C@H](c2ccc3c(c2)CCO3)[C@@H](C(=O)Nc2cccc(F)c2F)C1=O
system: ragweed (common ragweed, Ambrosia elatior)
pest or weed control at 125 g/ha [%]: 20
//
compound: CN1C[C@H](c2cccc(C#N)c2)[C@@H](C(=O)Nc2ccccc2F)C1=O
system: ragweed (common ragweed, Ambrosia elatior)
pest or weed control at 125 g/ha [%]: 0
//
compound: O=C1NC[C@H](c2ccc(OC(F)F)cc2)[C@H]1C(=O)Nc1ccc(F)cc1F
system: ragweed (common ragweed, Ambrosia elatior)
pest or weed control at 125 g/ha [%]: 0
//
compound: CN1C[C@H](c2ccc(C(F)(F)F)cc2)[C@@H](C(=O)Nc2ccccc2-n2cncn2)C1=O
system: ragweed (common ragweed, Ambrosia elatior)
pest or weed control at 125 g/ha [%]: 0
//
compound: Cc1ccc([C@H]2CN(C)C(=O)[C@@H]2C(=O)Nc2cccc(F)n2)cc1
system: ragweed (common ragweed, Ambrosia elatior)
pest or weed control at 125 g/ha [%]: 20
//
compound: CO[C@]1(C(=O)Nc2cccc(F)c2F)C(=O)N(C)C[C@@H]1c1ccc(C(F)(F)F)cc1 (racemic)
system: ragweed (common ragweed, Ambrosia elatior)
pest or weed control at 125 g/ha [%]: 0
//
compound: Cc1c(F)ccc([C@H]2CNC(=O)[C@@H]2C(=O)Nc2ccccc2F)c1F
system: ragweed (common ragweed, Ambrosia elatior)
pest or weed control at 125 g/ha [%]: 0
//
compound: CN1CC[C@H](c2cccc(C(F)(F)F)c2)[C@@H](C(=O)Nc2ccccc2F)C1=O
system: ragweed (common ragweed, Ambrosia elatior)
pest or weed control at 125 g/ha [%]: 0

* * *

Test system: ryegrass, Italian (Italian ryegrass, Lolium multiflorum)
test: Test A preemergence
Type: in vivo
conditionParameters: 500 g ai/ha, preemergence; 0 to 100 scale, 0 = no effect, 100 = complete control
Listed compounds paired with reported Plant response rating, Ryegrass, Italian

compound: O=C1NCC(c2cccc(C(F)(F)F)c2)C1C(=O)Nc1ccc(F)cc1Cl (racemic)
system: ryegrass, Italian (Italian ryegrass, Lolium multiflorum)
Plant response rating, Ryegrass, Italian: 20

compound: CN1CC(c2cccc(C(F)(F)F)c2)C(C(=O)Nc2ccccc2C(F)(F)F)C1=O (centres unmarked)
system: ryegrass, Italian (Italian ryegrass, Lolium multiflorum)
Plant response rating, Ryegrass, Italian: 90

compound: CCc1cc(C2CNC(=O)C2C(=O)Nc2ccccc2F)cs1 (racemic)
system: ryegrass, Italian (Italian ryegrass, Lolium multiflorum)
Plant response rating, Ryegrass, Italian: 30

compound: Cc1cccc(C2CN(C)C(=O)C2C(=O)Nc2ccccc2S(C)(=O)=O)c1 (centres unmarked)
system: ryegrass, Italian (Italian ryegrass, Lolium multiflorum)
Plant response rating, Ryegrass, Italian: 0

compound: O=C1NCC(c2cccc(Br)c2)C1C(=O)Nc1ccc(F)cc1F (racemic)
system: ryegrass, Italian (Italian ryegrass, Lolium multiflorum)
Plant response rating, Ryegrass, Italian: 20
